The measurements presented in this section are drawn from patent US20150166606A1.

Target: plasmin (Enzyme Research Laboratories) (human, UniProt P00747 97-810, limits assumed)
Sequence (P00747 97-810 limits assumed): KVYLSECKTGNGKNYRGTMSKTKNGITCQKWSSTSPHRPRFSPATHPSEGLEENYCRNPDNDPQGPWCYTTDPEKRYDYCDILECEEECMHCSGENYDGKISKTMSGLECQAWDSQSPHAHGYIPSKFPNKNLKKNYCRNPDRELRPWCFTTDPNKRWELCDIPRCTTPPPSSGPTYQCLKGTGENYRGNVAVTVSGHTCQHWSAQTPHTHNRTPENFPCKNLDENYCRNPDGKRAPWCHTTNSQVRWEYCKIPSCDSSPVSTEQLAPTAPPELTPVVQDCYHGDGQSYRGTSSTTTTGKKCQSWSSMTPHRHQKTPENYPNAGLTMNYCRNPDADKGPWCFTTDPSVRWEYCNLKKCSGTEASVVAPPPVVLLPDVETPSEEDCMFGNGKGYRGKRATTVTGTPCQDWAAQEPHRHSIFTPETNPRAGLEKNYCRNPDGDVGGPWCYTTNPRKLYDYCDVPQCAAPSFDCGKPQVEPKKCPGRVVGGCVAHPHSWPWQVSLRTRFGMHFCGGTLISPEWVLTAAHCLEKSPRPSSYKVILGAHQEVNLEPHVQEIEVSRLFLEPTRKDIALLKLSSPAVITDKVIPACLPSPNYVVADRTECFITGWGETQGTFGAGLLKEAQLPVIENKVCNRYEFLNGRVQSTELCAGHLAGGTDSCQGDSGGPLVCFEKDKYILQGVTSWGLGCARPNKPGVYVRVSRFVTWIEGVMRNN
Test: cell-based or functional assay
Bridge positions count the residues as written; N and C are the ends. Square brackets hold non-standard residues; d marks the D form. Ends that are not written are not given here. * marks the point of attachment. mXylyl = xylyl linker from dibromoxylene joining the two cysteines; Phg = N[C@H](C(=O)O)c1ccccc1; Tle = CC(C)(C)[C@H](N)C(=O)O; NMeS = CN[C@@H](CO)C(=O)O; Heptanoyl = CCCCCCC(=O)*; Nva = CCC[C@H](N)C(=O)O
measurementName: Plasmin IC50

# batch size: 6; output Plasmin IC50 per entry
1. MCNYWSPWTECSA-NH2 (cysteine pairing not given here) [R2104]
2. MCE[NMeS]ICRV-NH2 (linker 2-6 via mXylyl) [R2019]
3. Ac-CESICRV-NH2 (linker 1-5 via mXylyl) [R2023]
4. Heptanoyl-CESICRV-NH2 (linker 1-5 via mXylyl) [R2041]
5. [Nva]CEP[Phg]CR[Tle]-NH2 (linker 2-6 via mXylyl) [R2030]
6. Ac-CAS[Phg]CR[Tle]-NH2 (linker 1-5 via mXylyl) [R2036]

5.8 µM
> 21 µM
> 100 µM
> 100 µM
> 100 µM
> 19.5 µM
